test system: NCI-H460; assay: relative viability (nuclei count vs DMSO), 5 days (fraction); higher = more cells survive; details: first compound 0.2 µM
measure: relative viability
Give the value as a plain number.

{"compound": "Cc1csc(=NC2CCCCC2)n1/N=C/c1ccc(O)c(O)c1O [MIM1] + Cc1nc(Nc2ncc(C(=O)Nc3c(C)cccc3Cl)s2)cc(N2CCN(CCO)CC2)n1 [Dasatinib] (partner 0.075 µM)", "relative viability": 0.508}
{"compound": "Cc1csc(=NC2CCCCC2)n1/N=C/c1ccc(O)c(O)c1O [MIM1] + CC(=O)Nc1cccc(-n2c(=O)n(C3CC3)c(=O)c3c(Nc4ccc(I)cc4F)n(C)c(=O)c(C)c32)c1 [Trametinib] (partner 0.02 µM)", "relative viability": 0.103}

Lab note: next compound to report on.
query: State the recorded relative viability for this entry: CCNC(=O)c1noc(-c2cc(C(C)C)c(O)cc2O)c1-c1ccc(CN2CCOCC2)cc1 [Luminespib] + C[C@]1(O)C[C@@H](c2nc(-c3ccc4ccc(-c5ccccc5)nc4c3)c3c(N)nccn32)C1 [Linsitinib] (partner 1 µM)
result: 0.0074

---

system: CAL-12T; assay: relative viability (nuclei count vs DMSO), 5 days (fraction); higher = more cells survive; conditions: first compound 0.1 µM
Note to self: relative viability under 0.5 means Fulfilled, ties and anything higher get Not fulfilled.

query: Does Cc1cn(-c2cc(NC(=O)c3ccc(C)c(Nc4nccc(-c5cccnc5)n4)c3)cc(C(F)(F)F)c2)cn1 [Nilotinib] + COc1cc2c(Oc3ccc(NC(=O)C4(C(=O)Nc5ccc(F)cc5)CC4)cc3F)ccnc2cc1OCCCN1CCOCC1 [Foretinib] (partner 0.25 µM) have relative viability strictly under 0.5?
result: Not fulfilled

---

test system: BEN; assay: relative viability (nuclei count vs DMSO), 5 days (fraction); higher = more cells survive; conditions: first compound 0.6325 µM
measure: relative viability
Lab note: jot down the number only; don't add units.

Please review the following examples before continuing.
{"compound": "Cc1csc(=NC2CCCCC2)n1/N=C/c1ccc(O)c(O)c1O [MIM1] + C[C@]1(O)C[C@@H](c2nc(-c3ccc4ccc(-c5ccccc5)nc4c3)c3c(N)nccn32)C1 [Linsitinib] (partner 1 µM)", "test system": "BEN", "assay value": 0.877}
{"compound": "CN1CCN(CCOc2cc(OC3CCOCC3)c3c(Nc4c(Cl)ccc5c4OCO5)ncnc3c2)CC1 [Saracatinib] + Cc1nc(Nc2ncc(C(=O)Nc3c(C)cccc3Cl)s2)cc(N2CCN(CCO)CC2)n1 [Dasatinib] (partner 0.075 µM)", "test system": "BEN", "assay value": 0.373}
{"compound": "CN1CCN(CCOc2cc(OC3CCOCC3)c3c(Nc4c(Cl)ccc5c4OCO5)ncnc3c2)CC1 [Saracatinib] + COc1cccc2cc(-c3nc([C@H]4CC[C@H](C(=O)O)CC4)n4ncnc(N)c34)[nH]c12 [OSI-027] (partner 0.5 µM)", "test system": "BEN", "assay value": 0.309}

With those in mind, consider the next compound.
query: Identify the measured relative viability of Cc1csc(=NC2CCCCC2)n1/N=C/c1ccc(O)c(O)c1O [MIM1] + Cc1cc(Nc2cc(N3CCN(C)CC3)nc(Sc3ccc(NC(=O)C4CC4)cc3)n2)n[nH]1 [Tozasertib] (partner 0.1 µM) for BEN.
result: 0.438
